- EXPERIMENTAL PROTOCOL: RP-HPLC retention on XTerra RP18, methanol/buffer; extrapolated retention factor log kw and slope S
- Format: physicochemical
- CONDITION DETAILS: pH 4.4; intercept, extrapolated to 100 % buffer; methanol/buffer, 25 °C
Counter-ions that a name gives are not always drawn.
Reported log kw by item:
Returns: the value as a bare number; no unit string appended.

Field: example entries. Status: answers known.
CCC1(C2=NCCN2)Cc2ccccc2O1 (centres unmarked) [Efaroxan, efaroxan hydrochloride]    1.31
c1ccc2c(CC3=NCCN3)cccc2c1 [Naphazoline, naphazoline hydrochloride]    1.52
CNC[C@H](O)c1cccc(O)c1 [Phenilephrine, Phenilephrine hydrochloride]    0.09
COc1nc(C)nc(Cl)c1N=C1NCCN1 [Moxonidine, moxonidine hydrochloride]    0.57
CN[C@@H](C)[C@@H](O)c1ccccc1 [Pseudoephedrine, pseudoephedrine hydrochloride]    0.60

Look at this compound and give its reported log kw. c1ccc2c(c1)CCCC2C1=NCCN1 (centres unmarked) [Tetrahydrozoline, tetrahydrozoline hydrochloride]
1.06

Look at this compound and give its reported log kw. COc1ccc2c(c1)[nH]c1c(C)nccc12 [Harmine, harmine hydrochloride]
2.15

Look at this compound and give its reported log kw. c1cc2c(c(NC3=NCCN3)c1)CCCC2 [Tramazoline, Tramazoline hydrochloride]
1.55

====

- EXPERIMENTAL PROTOCOL: RP-HPLC retention on XTerra RP18, methanol/buffer; extrapolated retention factor log kw and slope S
- Type: physicochemical
- CONDITION DETAILS: pH 9.1; intercept, extrapolated to 100 % buffer; methanol/buffer, 25 °C
Counter-ions that a name gives are not always drawn.
PROPERTY NAME: log kw
Returns: the value as a bare number; no unit string appended.

Field: example entries. Status: answers known.
C[C@@H]1CCC[C@H](C)N1NC(=O)c1ccc(Cl)c(S(N)(=O)=O)c1 [Clopamide, clopamide]    1.87
CN1CCN2c3ccccc3Cc3ccccc3C2C1 (stereo not shown) [Mianserin, mianserin hydrochloride]    3.92
c1ccc2c(c1)OCC(C1=NCCN1)O2 (stereo not shown) [Idazoxan, idazoxan hydrochloride]    1.53

Now consider the entry below.
Look at this compound and give its reported log kw. Cc1cc(C(C)(C)C)cc(C)c1CC1=NCCN1 [Xylometazoline, xylometazoline hydrochloride]
2.79

====

- EXPERIMENTAL PROTOCOL: RP-HPLC retention on XTerra RP18, methanol/buffer; extrapolated retention factor log kw and slope S
- Type: physicochemical
- CONDITION DETAILS: pH 7.4; slope of log k vs methanol volume fraction
Structures can show the parent of a compound that is named as a salt.
Reported S (slope) by item:

Cc1cc2c(s1)Nc1ccccc1N=C2N1CCN(C)CC1 [Olanzapine, olanzapine]    -4.37 ± 0.12

Look at this molecule and give its reported S (slope). c1ccc2c(CC3=NCCN3)cccc2c1 [Naphazoline, naphazoline hydrochloride]
-3.64 ± 0.05

Look at this molecule and give its reported S (slope). Cc1cc(C(C)(C)C)cc(C)c1CC1=NCCN1 [Xylometazoline, xylometazoline hydrochloride]
-4.14 ± 0.04

Look at this molecule and give its reported S (slope). c1ccc2c(c1)CCCC2C1=NCCN1 (stereo not shown) [Tetrahydrozoline, tetrahydrozoline hydrochloride]
-3.24 ± 0.06

====

- EXPERIMENTAL PROTOCOL: RP-HPLC retention on XTerra RP18, methanol/buffer; extrapolated retention factor log kw and slope S
- Type: physicochemical
- CONDITION DETAILS: pH 7.4; intercept, extrapolated to 100 % buffer; methanol/buffer, 25 °C
Counter-ions that a name gives are not always drawn.
Reported log kw by item:

Cc1cc2c(s1)Nc1ccccc1N=C2N1CCN(C)CC1    3.23 ± 0.07

Look at this compound and give its reported log kw. COc1cc2nc(N3CCN(C(=O)C4COc5ccccc5O4)CC3)nc(N)c2cc1OC (centres unmarked)
3.67 ± 0.11

Look at this compound and give its reported log kw. c1ccc2c(c1)CCCC2C1=NCCN1 (centres unmarked) [Tetrahydrozoline, tetrahydrozoline hydrochloride]
1.08 ± 0.01

Look at this compound and give its reported log kw. COc1nc(C)nc(Cl)c1N=C1NCCN1 [Moxonidine, moxonidine hydrochloride]
0.63 ± 0.03

Look at this compound and give its reported log kw. Cc1cc(C(C)(C)C)c(O)c(C)c1CC1=NCCN1 [Oxymetazoline, oxymetazoline hydrochloride]
2.33 ± 0.04

Look at this compound and give its reported log kw. Brc1c(NC2=NCCN2)ccc2nccnc12 [Brimonidine, brimonidine hydrochloride]
1.08 ± 0.03

Look at this compound and give its reported log kw. COc1ccc2c(c1)[nH]c1c(C)nccc12 [Harmine, harmine hydrochloride]
2.88 ± 0.05

Look at this compound and give its reported log kw. c1cc2c(c(NC3=NCCN3)c1)CCCC2 [Tramazoline, Tramazoline hydrochloride]
1.51 ± 0.01

Provenance of the data: paper PMC11542720
